# normalized growth per record follows
- Experiment notes: chemical genetic growth profiling, strain panel (AID 1159580);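 further: tested at 20 µM; growth read once vehicle control cultures reached saturation at 30 °C; 1 = growth at the plate median or of vehicle wells; lower values mean less growth of the strain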
- Assay conditions: S. cerevisiae deletion strains, growth OD, locus YNL248C, strain rpa49, hits give low values
The whole screen tested about 5,500 compounds, of which about 2,000 (36%) were called active. Not shown: some 18% with an inconclusive outcome. The list shows a part of the results.
Give the figure by itself; no unit, no explanation.

molecule=CN1CCN(CC(=O)N2c3ccccc3C(=O)Nc3cccnc32)CC1 attribute_measured="normalized growth" measured_number=1.03
molecule=O=C(CCc1ccc(O)cc1)c1c(O)cc(O)cc1O[C@@H]1O[C@H](CO)[C@@H](O)[C@H](O)[C@H]1O attribute_measured="normalized growth" measured_number=1.01
molecule=Cc1c(NC(=O)c2cccnc2)c(=O)n(-c2ccccc2)n1C attribute_measured="normalized growth" measured_number=1.01
molecule=O=C(O)c1cc(=O)c2c(Cl)cc(Cl)cc2[nH]1 attribute_measured="normalized growth" measured_number=1.01
molecule="CC(=O)CC1CCCCN1 (stereo unspecified)" attribute_measured="normalized growth" measured_number=1.01

Give me measured normalized growth, please, for this molecule: CCN(CC)CCNC(=O)c1cc(Cl)c(N)cc1OC
0.983

Indicate its recorded normalized growth; the molecule in question is CN(C)CCc1c[nH]c2ccc(C[C@H]3COC(=O)N3)cc12
1

In one line, give reported normalized growth of the entry CCC1(CC)C(=O)C=CNC1=O .
0.96

Check the records and state normalized growth for CC(=O)[C@@]1(O)CCC2C3CCC4=CC(=O)CC[C@]4(C)C3CC[C@@]21C (stereo partly specified)
0.999

# return recorded normalized growth for entry C1CCC(C(CC2CCCCN2)C2CCCCC2)CC1 (stereo unspecified)
0.926

Answer with the recorded normalized growth of CC1(C)C(=O)[C@@H]2C[C@@]3(O)C4=CC(=O)O[C@@H](c5ccoc5)[C@]4(C)CCC3[C@@](C)(C2=O)[C@H]1CC(=O)O (stereo partly specified) only.
1.02
